- Procedure details: Cytotoxicity against human CEM cells
- Type: cell-based
- Condition description: CEM (CCRF-CEM) cells, read-out: TC50 (the source's name)
Collected CC50 values appear next to each entry.

Below: 4 compounds and their reported CC50.
>>> print(df.to_string())
                              smiles_string    result
0  COC(=O)[C@H](CO)NC(=O)c1cnc2ccc(Cl)cc2c1Cl  > 100 µM
1   O=C(NCCO)c1c[nH]c2ccc(Oc3ccccc3)cc2c1=O  > 100 µM
2            COC(=O)CNC(=O)c1cnc2ccccc2c1Cl  > 100 µM
3  COC(=O)[C@H](CO)NC(=O)c1cnc2cc(C)ccc2c1Cl   59.6 µM

Name the recorded CC50 of the compound listed here: O=C(NCCO)c1cnc2ccccc2c1Cl > 100 µM
